Biological target: human histamine H-1 Receptor (Homo sapiens (Human))
Sequence (P35367 whole entry): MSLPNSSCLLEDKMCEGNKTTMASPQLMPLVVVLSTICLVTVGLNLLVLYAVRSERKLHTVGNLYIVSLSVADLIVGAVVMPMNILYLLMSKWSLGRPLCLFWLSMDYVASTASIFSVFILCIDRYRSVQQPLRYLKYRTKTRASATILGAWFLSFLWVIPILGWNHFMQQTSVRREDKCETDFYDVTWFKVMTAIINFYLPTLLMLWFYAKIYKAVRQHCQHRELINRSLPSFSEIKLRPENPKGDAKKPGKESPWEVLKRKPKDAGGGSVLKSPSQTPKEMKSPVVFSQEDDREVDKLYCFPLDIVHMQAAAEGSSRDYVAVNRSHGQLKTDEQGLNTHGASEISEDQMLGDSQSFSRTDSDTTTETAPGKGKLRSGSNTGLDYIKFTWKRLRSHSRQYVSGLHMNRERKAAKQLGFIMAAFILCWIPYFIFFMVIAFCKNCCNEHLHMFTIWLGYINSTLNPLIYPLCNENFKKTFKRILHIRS
Experiment: Binding to histamine H-1 receptors
Details: read-out: Human H-1 receptors IC50; heading: Human H-1 receptors IC50
Method: Affinities of the test compounds for peripheral human histamine H-1-receptors were assessed using receptor-binding assays. The specific binding of the radioactive ligand to the receptor was defined as the difference between total binding and nonspecific binding, determined in the presence of excess unlabeled ligand. Ki-values were determined according to the Cheng-Prusoff equation.
Record form. Attribute: pIC50. Fill in for each entry.
Lab note: report pIC50 as minus log10 of the concentration in molar units, number only.

Reading of pIC50 for O=C1Cc2ccccc2C(=C2CCNCC2)c2ccsc21 [S-NORKETOTIFEN, S-norketotifen] with human histamine H-1 Receptor (Homo sapiens (Human)): 7.64

Form field pIC50 for item O=C(O)/C=C/C(=O)O.O=C1Cc2ccccc2C(=C2CCNCC2)c2ccsc21 [R-NORKETOTIFEN, R-norketotifen] on human histamine H-1 Receptor (Homo sapiens (Human)): 7.77

====

For each of the compounds below, state its pKi.
Target: human histamine H-4 Receptor (Homo sapiens (Human), UniProt Q9H3N8)
Sequence (Q9H3N8 whole entry): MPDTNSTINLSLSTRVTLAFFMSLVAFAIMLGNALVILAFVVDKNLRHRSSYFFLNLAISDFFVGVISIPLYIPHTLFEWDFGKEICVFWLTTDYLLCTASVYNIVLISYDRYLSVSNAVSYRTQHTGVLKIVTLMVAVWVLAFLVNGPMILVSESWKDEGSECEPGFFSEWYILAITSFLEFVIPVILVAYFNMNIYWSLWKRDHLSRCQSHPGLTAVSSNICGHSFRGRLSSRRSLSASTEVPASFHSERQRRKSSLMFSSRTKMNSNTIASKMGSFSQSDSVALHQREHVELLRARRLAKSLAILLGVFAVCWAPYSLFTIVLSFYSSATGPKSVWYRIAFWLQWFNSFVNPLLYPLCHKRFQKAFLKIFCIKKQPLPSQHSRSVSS
Bear in mind: pKi is minus log10 of a mol/L concentration; give just that figure.

Item: `O=C(O)/C=C/C(=O)O.O=C1Cc2ccccc2C(=C2CCNCC2)c2ccsc21` | System: human histamine H-4 Receptor (Homo sapiens (Human), UniProt Q9H3N8) | pKi: 5.64

Kindly note: human histamine H-4 Receptor (Homo sapiens (Human), UniProt Q9H3N8), `O=C1Cc2ccccc2C(=C2CCNCC2)c2ccsc21` , pKi value reported: 5.96
